The molecules listed here are annotated with their IC50.
Subject Of Test: human full length HSD11 β 1 (Homo sapiens, UniProt P28845)
Construct: transient expression of human full length HSD11 β 1 expression vector; host or cells: CHO cells (transient transfection)
Sequence (P28845 whole entry): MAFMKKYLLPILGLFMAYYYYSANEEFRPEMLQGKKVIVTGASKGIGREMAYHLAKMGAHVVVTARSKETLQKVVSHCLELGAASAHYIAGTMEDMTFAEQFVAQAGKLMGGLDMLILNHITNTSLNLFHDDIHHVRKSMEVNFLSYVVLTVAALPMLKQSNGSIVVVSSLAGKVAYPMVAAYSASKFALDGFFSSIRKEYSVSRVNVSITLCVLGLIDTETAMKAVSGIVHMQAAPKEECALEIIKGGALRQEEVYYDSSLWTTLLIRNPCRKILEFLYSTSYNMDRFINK
Assay Details: In Vitro HSD11β1 Inhibition Assay
Assay type: cell-based
Reported Conditions: CHO cells transiently expressing human HSD11β1; 200 nM cortisone+500 uM NADPH overnight; cortisone to cortisol by LC/MS-MS; read-out: 11βHSD1 (IC50)
Reported Metric: IC50

> print(dat)
                                    molecule                           subject.of.test  reported.metric       reported
 1  CC(CC(=O)N1CCCC2CCCCC21)c1c[nH]c2ncccc12 (single isomer, unassigned) [Example 144]  human full length HSD11 β 1 (Homo sapiens, UniProt P28845)             IC50       > 250 nM
 2  O=C(CCc1c[nH]c2cc(F)ccc12)N1CCCC2CCCCC21 (centres unmarked)  human full length HSD11 β 1 (Homo sapiens, UniProt P28845)             IC50       > 250 nM
 3  O=C1CCN(C(=O)CCc2c[nH]c3ccccc23)C2CCCCC12 (centres unmarked)  human full length HSD11 β 1 (Homo sapiens, UniProt P28845)             IC50       > 250 nM
 4  CC(CC(=O)N1CCCC2CCCCC21)c1c[nH]c2cccc(F)c12 (centres unmarked) [Example 121]  human full length HSD11 β 1 (Homo sapiens, UniProt P28845)             IC50       < 100 nM
 5  CC(CC(=O)N1CCCC2C(C(=O)O)CCCC21)c1c[nH]c2cccc(C3CC3)c12 (single isomer, unassigned) [Compound 200]  human full length HSD11 β 1 (Homo sapiens, UniProt P28845)             IC50       < 100 nM
 6  CC(CC(=O)N1CCCC2C(C(=O)O)CCCC21)c1cn(C)c2cccc(C3CC3)c12 (single isomer, unassigned) [Compound 214]  human full length HSD11 β 1 (Homo sapiens, UniProt P28845)             IC50       < 100 nM
 7  CCn1cc(C(C)CC(=O)N2CCCC3C(C(=O)O)CCCC32)c2c(Cl)cccc21 (centres unmarked)  human full length HSD11 β 1 (Homo sapiens, UniProt P28845)             IC50       > 250 nM
 8  O=C(COc1c[nH]c2ccccc12)N1CCCC2CCCCC21 (centres unmarked)  human full length HSD11 β 1 (Homo sapiens, UniProt P28845)             IC50       > 250 nM
 9  CC(CC(=O)N1CCCC2CC(C(=O)O)CCC21)c1c[nH]c2cccc(-c3ccco3)c12 (centres unmarked)  human full length HSD11 β 1 (Homo sapiens, UniProt P28845)             IC50  100 to 150 nM
10  CC(CC(=O)N1CCO[C@H]2CCCCC21)c1c[nH]c2cccc(F)c12 (single isomer, unassigned) [Example 139]  human full length HSD11 β 1 (Homo sapiens, UniProt P28845)             IC50  100 to 150 nM
11  CCn1cc(CCC(=O)N2CCCC3CCCCC32)c2c(C)cccc21 (centres unmarked)  human full length HSD11 β 1 (Homo sapiens, UniProt P28845)             IC50       > 250 nM
12  CC(C)C(CC(=O)N1CCC(C(=O)O)C2CCCCC21)c1c[nH]c2cc(Cl)ccc12 (centres unmarked)  human full length HSD11 β 1 (Homo sapiens, UniProt P28845)             IC50  150 to 200 nM
13  Cn1cc(CCC(=O)N2CCCC3CCCCC32)c2cccnc21 (centres unmarked)  human full length HSD11 β 1 (Homo sapiens, UniProt P28845)             IC50       < 100 nM
14  Cn1cc(CCC(=O)N2CCCC3CCCCC32)c2ccccc21 (centres unmarked)  human full length HSD11 β 1 (Homo sapiens, UniProt P28845)             IC50       < 100 nM
15  O=C(CCc1c[nH]c2ncccc12)N1CCCC2CCCCC21 (centres unmarked)  human full length HSD11 β 1 (Homo sapiens, UniProt P28845)             IC50       < 100 nM
16  CC(C)Oc1cccc2[nH]cc(C(C)CC(=O)N3CCCC4C(C(=O)O)CCCC43)c12 (centres unmarked)  human full length HSD11 β 1 (Homo sapiens, UniProt P28845)             IC50       < 100 nM
17  CC(CC(=O)N1CCCC2CCCCC21)c1c[nH]c2ccccc12 (centres unmarked) [Compound 1]  human full length HSD11 β 1 (Homo sapiens, UniProt P28845)             IC50       < 100 nM

Origin of measurements: patent US9453014B2
